# Test system: PPARg:RXRa 270nM:90nM, anti-RXR (NR concentration 270 nM, RXRa partner concentration 90 nM)
# Assay Summary: PBM binding z-score (relative to random genomic background probes); higher = stronger binding; sequences stand for … in GC…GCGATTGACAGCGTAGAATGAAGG

Sequence: GCTGCTAGGTCATGTTGGTCAGCTAACGGGTACG
PBM binding z-score: 2.3
--
Sequence: CCTTACGGGTCAAGGTTATACCACGGGTGGTACG
PBM binding z-score: 4.47
--
Sequence: TAGCCTAGGCCATGGGCCAGTATACCACGCGAAC
PBM binding z-score: -0.0896
--
Sequence: CGAGCTAGGTCAAAGGACAGTGAAAGGCGACGTA
PBM binding z-score: 6.04
--
Sequence: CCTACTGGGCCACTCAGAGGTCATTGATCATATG
PBM binding z-score: 3.49
--
Sequence: TCTGCTTGGTCAACGATGGTCAGCTAATCTGCTA
PBM binding z-score: 0.665
--
Sequence: CCTGCTAGGTCAAGGGTCAGCTAAAGCAGCTCGC
PBM binding z-score: 8.48
--
Sequence: CGAACTAAGTCACCAGGACAGTGAAGAGGTTGGA
PBM binding z-score: 0.0365
--
Sequence: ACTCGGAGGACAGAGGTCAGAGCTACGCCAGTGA
PBM binding z-score: 4.96
--
Sequence: TCTGCTAGGTCAGTTGGGCAGCTAACGAGCTGCC
PBM binding z-score: 1.52
--
Sequence: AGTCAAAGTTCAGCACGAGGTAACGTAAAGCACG
PBM binding z-score: 5.1
--
Sequence: CGAACTAGGTCACCAAGACAGTGAAGAGGTTGGA
PBM binding z-score: 6.46
--
Sequence: TTACCAAGGTGAAAGGTCGTTGAAGCACGCCTTG
PBM binding z-score: 8.52
--
Sequence: CAAACTAGGTCAAGAGGTCAAACTCCGCTTCCCG
PBM binding z-score: 8.55
--
Sequence: CGAATTAGGTCAAAGGACAGTGAAAGGCGACGTA
PBM binding z-score: 8.69
--
Sequence: TCGAGTAGGTTACGGTGGCATTCAGGGATGAAGA
PBM binding z-score: 2.29
--
Sequence: CCTACTGGGCCAAAGGTCATTGACTCCAATGCTC
PBM binding z-score: 10.3
--
Sequence: AATACAGGGTCACTAGGCCCGAGTAGGTACGAAT
PBM binding z-score: 5.26
--
Sequence: CGAACTAGGGCACCAGGACAGTGAAGAGGTTGGA
PBM binding z-score: 3.54
--
Sequence: CCTACTGGGCCATTCAGAGGTCATTGATCATATG
PBM binding z-score: 3.24
--
Sequence: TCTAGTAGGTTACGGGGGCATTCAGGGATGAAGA
PBM binding z-score: 6.8
--
Sequence: CCTAGTGGGCCAAAGGTCATTGATTCCAATGCTC
PBM binding z-score: 10.7
--
Sequence: ATATGTAGGCTAGGGTCATTCAGAAAGTAGGGAA
PBM binding z-score: 4.76
--
Sequence: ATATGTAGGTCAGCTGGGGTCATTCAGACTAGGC
PBM binding z-score: 7.13
--
Sequence: CAAAGTAGGTCACGAAAGGTCAAAGTCGAATGAC
PBM binding z-score: 8.58
--
Sequence: ATATGTAGGTGAGGGTCATTCAGAAAGTAGGGAA
PBM binding z-score: 6.55
